The measurements presented in this section are drawn from patent US9018258B2.

# Assayed system: soluble guanylate cyclase (sGC) (Rattus norvegicus, UniProt P20595)
# Sequence (P19686 whole entry partner): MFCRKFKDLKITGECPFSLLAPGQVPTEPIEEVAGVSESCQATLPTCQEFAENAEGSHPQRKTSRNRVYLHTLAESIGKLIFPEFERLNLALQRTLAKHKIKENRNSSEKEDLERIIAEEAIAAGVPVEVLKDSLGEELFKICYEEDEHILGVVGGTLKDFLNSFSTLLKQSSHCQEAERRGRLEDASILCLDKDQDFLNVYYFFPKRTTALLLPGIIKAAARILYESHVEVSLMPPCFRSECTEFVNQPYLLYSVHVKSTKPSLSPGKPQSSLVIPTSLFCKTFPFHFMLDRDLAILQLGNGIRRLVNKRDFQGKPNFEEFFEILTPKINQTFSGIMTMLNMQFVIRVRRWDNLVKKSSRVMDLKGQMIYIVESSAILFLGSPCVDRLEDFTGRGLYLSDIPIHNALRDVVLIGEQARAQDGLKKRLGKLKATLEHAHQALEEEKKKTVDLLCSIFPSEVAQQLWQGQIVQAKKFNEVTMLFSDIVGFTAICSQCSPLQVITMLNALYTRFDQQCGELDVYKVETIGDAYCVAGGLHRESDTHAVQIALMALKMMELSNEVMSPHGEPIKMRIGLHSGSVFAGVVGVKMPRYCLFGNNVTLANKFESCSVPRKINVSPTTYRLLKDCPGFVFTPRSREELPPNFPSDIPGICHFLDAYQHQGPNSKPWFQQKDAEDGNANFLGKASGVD
# Sequence (P20595 whole entry): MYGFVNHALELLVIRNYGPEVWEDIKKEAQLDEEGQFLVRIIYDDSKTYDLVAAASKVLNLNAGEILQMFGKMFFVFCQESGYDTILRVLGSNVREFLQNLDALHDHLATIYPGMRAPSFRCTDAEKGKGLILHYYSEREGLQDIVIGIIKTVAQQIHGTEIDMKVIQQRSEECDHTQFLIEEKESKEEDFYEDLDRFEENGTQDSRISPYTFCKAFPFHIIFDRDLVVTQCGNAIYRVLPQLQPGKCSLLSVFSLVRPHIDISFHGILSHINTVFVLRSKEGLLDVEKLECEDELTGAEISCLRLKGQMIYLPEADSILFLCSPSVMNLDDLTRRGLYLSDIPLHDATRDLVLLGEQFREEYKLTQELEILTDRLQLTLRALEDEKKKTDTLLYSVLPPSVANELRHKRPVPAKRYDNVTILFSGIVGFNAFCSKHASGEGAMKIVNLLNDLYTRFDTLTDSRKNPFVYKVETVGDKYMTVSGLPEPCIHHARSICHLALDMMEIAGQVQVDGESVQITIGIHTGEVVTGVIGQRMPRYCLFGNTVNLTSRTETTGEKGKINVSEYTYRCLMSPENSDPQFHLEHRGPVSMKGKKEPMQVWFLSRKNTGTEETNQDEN
# Experiment description: Stimulation of sGC enzyme activity (PPi detection, luciferase)
# Test conditions: sGC enzyme in vitro; read-out: EC50 (concentration at 50% of maximum efficacy), activating action at the sGC enzyme
Readout: pEC50
# pEC50: negative log10 of molar concentration; output just the value

// known answers, use as guide
{"Compound": "COC(c1ccc(Cl)c(NC(=O)[C@H](c2ccc(Cl)cc2)[C@@H](C)C(F)(F)F)c1)C1(C(=O)O)CCC1 (single isomer, unassigned)", "pEC50": 6.48}
{"Compound": "CCOC(c1ccc(Cl)c(NC(=O)[C@H](c2ccc(Cl)cc2)[C@@H](C)C(F)(F)F)c1)C1(C(=O)O)CC1 (single isomer, unassigned)", "pEC50": 8.34}
{"Compound": "C[C@H]([C@H](C(=O)Nc1cc(CC2(C(=O)O)CC2)ccc1Cl)c1ccc(Cl)cc1F)C(F)(F)F", "pEC50": 8.14}
{"Compound": "COc1cc([C@@H](C(=O)Nc2cc(CC3(C(=O)O)CC3)ccc2Cl)[C@@H](C)C(F)(F)F)ccc1Cl", "pEC50": 7.62}
{"Compound": "C[C@H]([C@H](C(=O)Nc1cc(CC2(C(=O)O)CC2)ccc1F)c1ccc(Cl)cc1)C(F)(F)F", "pEC50": 7.68}
{"Compound": "O=C(Nc1cc(CC2(C(=O)O)CC2)ccc1F)[C@H](c1ccc(Cl)cc1)C1CCCC1(F)F (single isomer, unassigned; (+))", "pEC50": 7.35}

Problem: Tell me the measured pEC50 of O=C(Nc1cc(CC2(C(=O)O)CC2)ccc1F)[C@H](c1ccc(Cl)cc1)C1CCCC1 (single isomer, unassigned) , please.
Result: 7.52

Problem: Now this one: C[C@H]([C@H](C(=O)Nc1cc(CC2(C(=O)O)CC2)ccc1Cl)c1ccc(Cl)cc1)C(F)(F)F
Result: 8.14

Problem: Now this one: [2H]C([2H])([2H])OC(c1ccc(Cl)c(NC(=O)[C@H](c2ccc(Cl)cc2)[C@@H](C)C(F)(F)F)c1)C1(C(=O)O)CC1 (single isomer, unassigned; (+))
Result: 7.28

Problem: Now this one: C[C@H]([C@H](C(=O)Nc1cc(CC2(C(=O)O)CC2)ccc1Cl)c1ccc(Cl)c(F)c1)C(F)(F)F
Result: 8.12

====

# Assayed system: soluble guanylate cyclase (sGC) (Rattus norvegicus)
# Construct: made in house; host or cells: Sf9 insect cells (baculovirus)
# Experiment description: Stimulation of sGC enzyme activity (PPi detection, luciferase)
# Assay type: biochemical
# Test conditions: sGC enzyme in vitro
Known MEC (minimum effective concentration), activating action at the sGC enzyme of a selection of molecules
Report as a plain number; the unit nM is understood.

// known answers, use as guide
{"Molecule": "CC(C(C(=O)Nc1cc(CC2(C(=O)O)CC2)ccc1Cl)c1ccc(CC(F)(F)F)cc1)C(F)(F)F (single isomer, unassigned) [Example 82]", "Value units": "nM", "Val": 3.4}
{"Molecule": "O=C(Nc1cc(CC2(C(=O)O)CC2)ccc1Cl)C(c1ccc(Cl)cc1)C1CCC(F)(F)C1 (single isomer, unassigned) [Example 73]", "Value units": "nM", "Val": 3.8}
{"Molecule": "CCOC(c1ccc(Cl)c(NC(=O)[C@H](c2ccc(Cl)cc2)[C@@H](C)C(F)(F)F)c1)C1(C(=O)O)CCC1 (single isomer, unassigned) [Example 109]", "Value units": "nM", "Val": 0.7}
{"Molecule": "[2H]C([2H])([2H])OC(c1ccc(Cl)c(NC(=O)[C@H](c2ccc(Cl)cc2)[C@@H](C)C(F)(F)F)c1)C1(C(=O)O)CCC1 (single isomer, unassigned) [Example 105]", "Value units": "nM", "Val": 36}

Problem: Tell me the measured MEC (minimum effective concentration), activating action at the sGC enzyme of COC(c1ccc(Cl)c(NC(=O)[C@H](c2ccc(Cl)cc2)[C@@H](C)C(F)(F)F)c1)C1(C(=O)O)CC1 (single isomer, unassigned; (+)) [Example 89] , please.
Result: 3.9

====

Known EC50 of a selection of compounds
# Assayed system: GAL4-PPARδ (Homo sapiens, UniProt Q03181)
# Construct: PPARδ (amino acids 138-442)
# Sequence (Q03181 138-441 limits assumed): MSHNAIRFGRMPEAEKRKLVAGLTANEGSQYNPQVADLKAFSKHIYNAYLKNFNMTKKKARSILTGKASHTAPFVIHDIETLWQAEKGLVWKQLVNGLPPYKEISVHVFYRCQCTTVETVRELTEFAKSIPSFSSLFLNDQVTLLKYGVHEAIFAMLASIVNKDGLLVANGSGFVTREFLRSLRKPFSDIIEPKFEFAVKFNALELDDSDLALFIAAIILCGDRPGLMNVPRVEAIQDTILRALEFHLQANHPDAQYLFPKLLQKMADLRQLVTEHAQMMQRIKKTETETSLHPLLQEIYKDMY
# Experiment description: Cellular PPAR transactivation assay, GAL4-PPARδ chimera in CHO-K1 cells
# Test conditions: CHO-K1 cells, luciferase reporter, 6 h stimulation

{"Compound": "C[C@H]([C@H](C(=O)Nc1cc(CC2(C(=O)O)CC2)ccc1F)c1ccc(Cl)cc1)C(F)(F)F", "Val": "> 10 µM"}
{"Compound": "[2H]C([2H])([2H])OC(c1ccc(Cl)c(NC(=O)[C@H](c2ccc(Cl)cc2)[C@@H](C)C(F)(F)F)c1)C1(C(=O)O)CC1 (single isomer, unassigned; (+))", "Val": "> 10 µM"}

Problem: Tell me the measured EC50 of Cc1ccc(CC2(C(=O)O)CC2)cc1NC(=O)[C@H](c1ccc(Cl)cc1)[C@@H](C)C(F)(F)F , please.
Result: > 10 µM

====

# Assayed system: soluble guanylate cyclase (sGC) (Rattus norvegicus)
# Experiment description: Stimulation of sGC enzyme activity (PPi detection, luciferase)
# Test conditions: sGC enzyme in vitro; read-out: EC50 (concentration at 50% of maximum efficacy), activating action at the sGC enzyme
Known pEC50 of a selection of compounds
# pEC50: negative log10 of molar concentration; output just the value

{"Compound": "COC(c1ccc(Cl)c(NC(=O)[C@H](c2ccc(Cl)cc2)[C@@H](C)C(F)(F)F)c1)C1(C(=O)O)CC1 (single isomer, unassigned; (+)) [Example 89]", "pEC50": 7.15}
{"Compound": "CC(C(C(=O)Nc1cc(CC2(C(=O)O)CC2)ccc1Cl)c1ccc(CC(F)(F)F)cc1)C(F)(F)F (single isomer, unassigned) [Example 82]", "pEC50": 7.36}
{"Compound": "CCOC(c1ccc(Cl)c(NC(=O)[C@H](c2ccc(Cl)cc2)[C@@H](C)C(F)(F)F)c1)C1(C(=O)O)CCC1 (single isomer, unassigned) [Example 109]", "pEC50": 7.70}
{"Compound": "O=C(Nc1cc(CC2(C(=O)O)CC2)ccc1Cl)C(c1ccc(Cl)cc1)C1CCC(F)(F)C1 (single isomer, unassigned) [Example 73]", "pEC50": 7.08}

Switching to the query record.
Problem: Tell me the measured pEC50 of [2H]C([2H])([2H])OC(c1ccc(Cl)c(NC(=O)[C@H](c2ccc(Cl)cc2)[C@@H](C)C(F)(F)F)c1)C1(C(=O)O)CCC1 (single isomer, unassigned) [Example 105] , please.
Result: 6.62

====

# Assayed system: GAL4-PPARγ (Homo sapiens)
# Construct: PPARγ (amino acids 203-506); expressed in transfected cells
# Sequence (P37231 203-505 limits assumed): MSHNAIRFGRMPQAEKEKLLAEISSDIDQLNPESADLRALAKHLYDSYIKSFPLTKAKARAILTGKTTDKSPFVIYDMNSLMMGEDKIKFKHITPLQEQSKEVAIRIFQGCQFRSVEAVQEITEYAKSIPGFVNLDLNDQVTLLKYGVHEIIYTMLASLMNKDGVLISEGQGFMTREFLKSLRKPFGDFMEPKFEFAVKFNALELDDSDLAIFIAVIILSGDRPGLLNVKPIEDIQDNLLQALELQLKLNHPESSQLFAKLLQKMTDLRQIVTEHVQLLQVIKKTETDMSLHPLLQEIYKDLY
# Experiment description: Cellular PPAR transactivation assay, GAL4-PPARγ chimera in CHO-K1 cells
# Type: cell-based
# Test conditions: CHO-K1; maximum effect relative to reference compound (Example 73 of EP 1 452 521-A1 = 100%); read-out: PPARγ efficacy
I would appreciate it if you labelled entries true (1) when Emax is 10% or higher, otherwise false (0).

A selection of reference data follows.
{"Compound": "C[C@H]([C@H](C(=O)Nc1cc(CC2(C(=O)O)CC2(F)F)ccc1Cl)c1ccc(Cl)cc1)C(F)(F)F (single isomer, unassigned; (+)) [Example 71]", "Assayed system": "GAL4-PPARγ (Homo sapiens)", "Assigned label": "true (1)"}
{"Compound": "C[C@H]([C@H](C(=O)Nc1cc(CC2(C(=O)O)CC2)ccc1Cl)c1ccc(Cl)c(F)c1)C(F)(F)F [Example 30]", "Assayed system": "GAL4-PPARγ (Homo sapiens)", "Assigned label": "true (1)"}
{"Compound": "O=C(Nc1cc(CC2(C(=O)O)CC2)ccc1F)[C@H](c1ccc(Cl)cc1)C1CCCC1(F)F (single isomer, unassigned; (+)) [Example 68]", "Assayed system": "GAL4-PPARγ (Homo sapiens)", "Assigned label": "false (0)"}
{"Compound": "[2H]C([2H])([2H])OC(c1ccc(Cl)c(NC(=O)[C@H](c2ccc(Cl)cc2)[C@@H](C)C(F)(F)F)c1)C1(C(=O)O)CC1 (single isomer, unassigned; (+)) [Example 99]", "Assayed system": "GAL4-PPARγ (Homo sapiens)", "Assigned label": "false (0)"}

Problem: # bool: Emax of COc1ccc(CC2(C(=O)O)CC2)cc1CNC(=O)c1ccc(Cl)cc1Cl [Example 11 of EP 1 452 521-A1, reference compound] >= 10%
Result: false (0)

Problem: Now this one: C[C@H]([C@H](C(=O)Nc1cc(CC2(C(=O)O)CC2)ccc1Cl)c1ccc(Cl)cc1)C(F)(F)F [Example 50]
Result: true (1)

Problem: Now this one: C[C@H]([C@H](C(=O)Nc1cc(CC2(C(=O)O)CC2)ccc1Cl)c1ccc(Cl)cc1F)C(F)(F)F [Example 32]
Result: true (1)

Problem: Now this one: C[C@H]([C@H](C(=O)Nc1cc(CC2(C(=O)O)CC2)ccc1Cl)c1ccc(C(C)(C)C(F)(F)F)cc1)C(F)(F)F [Example 44]
Result: false (0)

Problem: Now this one: CC(C(C(=O)Nc1cc(CC2(C(=O)O)CC2)ccc1Cl)c1ccc(CC(F)(F)F)cc1)C(F)(F)F (single isomer, unassigned) [Example 82]
Result: true (1)

Problem: Now this one: COC(c1ccc(Cl)c(NC(=O)[C@H](c2ccc(Cl)cc2)[C@@H](C)C(F)(F)F)c1)C1(C(=O)O)CC1 (single isomer, unassigned; (+)) [Example 89]
Result: false (0)
